Could you please report measured TGI for the items listed next?
- Test system: MCF7 breast
- Assay: NCI tumour cell line growth inhibition, 48 h
Provide the reading as a plain figure in µM.

Problem: // lookup TGI for CCCCCCCCCC(O)CC(=O)c1c(O)cccc1O (configuration not stated)
Result: 50.3

Problem: // lookup TGI for COC(=O)[C@H]1[C@@H](O)[C@@]2(O)c3c(OC)cc(OC)cc3O[C@@]2(c2ccc3c(c2)OCO3)[C@@H]1c1ccccc1
Result: 0.0618

Problem: // lookup TGI for Oc1cc(Cl)cc2cc(Cl)cnc12
Result: 54.6

Problem: // lookup TGI for COC1=CC(=O)c2c(cc(COP(N)(=O)N(CCCl)CCCl)n2C)C1=O (configuration not stated)
Result: 9.55

Problem: // lookup TGI for O=C(NNS(=O)(=O)c1ccc(Br)cc1)c1ccc(Cl)cc1NC(=O)C12CC3CC(CC(C3)C1)C2
Result: 34.1

Problem: // lookup TGI for Oc1[nH]c(N=C2N=c3ccccc3=N2)c2ccccc12
Result: 23.7

Problem: // lookup TGI for CC(=O)OC12CC(C(F)(F)F)(C(F)(F)F)OC1(OC(C)=O)CC(C(F)(F)F)(C(F)(F)F)O2 (configuration not stated)
Result: 3.73

Problem: // lookup TGI for c1ccc2[nH]c3c(N=NC4=NCCN4)c4ccccc4c-3nc2c1
Result: 11.4

Problem: // lookup TGI for C[C@]12CC[C@@H]3c4ccc(O)cc4CC[C@H]3[C@@H]1CC[C@@H]2NS(=O)(=O)c1cccc(Cl)c1
Result: 7.46

Problem: // lookup TGI for COC12C=C/C(=C(/C(=O)OCCSc3ccnn3C)C(=O)CCCCCCCCC3(OC)C=C/C(=C(/C(=O)OCCSc4ccnn4C)C(=O)CCCCCCCC1)O3)O2
Result: 15.2

Problem: // lookup TGI for COc1cccc(OC(=O)c2ccc(C(F)(F)F)nc2Nc2c(C)cccc2Cl)c1
Result: 81.2

Problem: // lookup TGI for Cc1c(NC(=O)CCl)c(=O)oc2c(C)c3occc(=O)c3cc12
Result: 66.2

Problem: // lookup TGI for c1ccc2cc(Cn3cc[n+](Cc4ccc5ccccc5c4)c3)ccc2c1
Result: 10.5

Problem: // lookup TGI for Nc1nc(Nc2ccc(Cl)cc2)sc1C(=O)c1c[nH]c2ccccc12
Result: 31

Problem: // lookup TGI for C=C1C(=O)O[C@H]2[C@H]1CC/C(Cn1cc(Cc3c[nH]c4ccccc34)nn1)=C\CC[C@@]1(C)O[C@@H]21
Result: 3.34
